# Protocol: logP by HPLC on reversed phase columns (EEC directive 79/831 Annex V.A8)
# Conditions: method [a]: HPLC/LC-MS at pH 2.7, 0.1% formic acid in water / acetonitrile gradient; Table 1
Listed here: items and their measured LogP.

Sample records with LogP:
| Compound | LogP |
| --- | --- |
| Cn1oc(=S)nc1C(=NOCc1csc(NC(=O)C(C)(C)C)n1)c1ccccc1 | 3.31^[a] |
| C#CCCOC(=O)Nc1nc(CON=C(c2ccccc2)c2nc(=S)on2C)cs1 | 2.96^[a] |
| Cn1oc(=S)nc1C(=NOCc1csc(NC(=O)OCCOc2ccccc2)n1)c1ccccc1 | 4.18^[a] |

Query: Bench note: what LogP did Cn1oc(=S)nc1C(=NOCc1csc(NC(=O)OC2CC3CCC2C3)n1)c1ccccc1 (stereo not shown) show?
Result: 4.06^[a]

====

# Conditions: pH 2.7
Marks after values point to notes of the source that are not given here.
Listed here: items and their measured LogP.

Sample records with LogP:
| Compound | Recorded value |
| --- | --- |
| Cn1oc(=S)nc1C(=NOCc1csc(NC(=O)COc2ccccc2)n1)c1ccccc1 | 3.31^[a] |
| CCCCCC(=O)Nc1nc(CON=C(c2ccccc2)c2nc(=S)on2C)cs1 | 3.63^[a] |
| Cn1oc(=S)nc1C(=NOCc1csc(NC(=O)C2COc3ccccc3O2)n1)c1ccccc1 (stereo not shown) | 3.50^[a] |

Proceed to the following item.
Query: Bench note: what LogP did `CCCCC(=O)Nc1cccc(CON=C(c2ccccc2)c2noc(=S)n2C)n1` show?
Result: 4.18^[a]

====

# Protocol: logP by HPLC on reversed phase columns (EEC directive 79/831 Annex V.A8)
# Conditions: method [a]: HPLC/LC-MS at pH 2.7, 0.1% formic acid in water / acetonitrile gradient; Table 1
Measured metric: LogP

Sample records with LogP:
| Compound | LogP |
| --- | --- |
| Cn1oc(=S)nc1C(=NOCc1csc(NC(=O)OCCc2ccccc2)n1)c1ccccc1 | 3.76^[a] |
| Cn1c(C(=NOCc2cccc(NC(=O)OCc3ccccc3)n2)c2ccccc2)noc1=S | 4.58^[a] |
| Cn1oc(=S)nc1C(=NOCc1csc(NC(=O)c2ccccc2)n1)c1ccccc1 | 3.31^[a] |
| C#CCC(C)OC(=O)Nc1nc(CON=C(c2ccccc2)c2nc(=S)on2C)cs1 (centres unmarked) | 3.23^[a] |
| CCCCC(CC)COC(=O)Nc1nc(CON=C(c2ccccc2)c2nc(=S)on2C)cs1 (centres unmarked) | 5.55^[a] |

Query: Bench note: what LogP did `C#CCC(C)(C)OC(=O)Nc1cccc(CON=C(c2ccccc2)c2noc(=S)n2C)n1` show?
Result: 4.54^[a]

Query: Bench note: what LogP did CCC(C)SC(=O)Nc1nc(CON=C(c2ccccc2)c2nc(=S)on2C)cs1 (centres unmarked) show?
Result: 3.90^[a]

Query: Bench note: what LogP did C#CCCC(C)OC(=O)Nc1nc(CON=C(c2ccccc2)c2nc(=S)on2C)cs1 (centres unmarked) show?
Result: 3.41^[a]

====

# Conditions: pH 2.7
Marks after values point to notes of the source that are not given here.
Listed here: items and their measured LogP.

Sample records with LogP:
| Smiles record | LogP |
| --- | --- |
| CCCCCCC(=O)Nc1nc(CON=C(c2ccccc2)c2nc(=S)on2C)cs1 | 3.99^[a] |
| Cn1oc(=S)nc1C(=NOCc1csc(NC(=O)C2(C)CC2)n1)c1ccccc1 | 3.11^[a] |

Proceed to the following item.
Query: Bench note: what LogP did `C#CCCCOC(=O)Nc1nc(CON=C(c2ccccc2)c2nc(=S)on2C)cs1` show?
Result: 3.19^[a]

====

Listed here: items and their measured chromatographic logP.
# Protocol: logP by HPLC on reversed phase columns (EEC directive 79/831 Annex V.A8)
# Conditions: pH 2.7

Sample records with chromatographic logP:
| Compound | chromatographic logP |
| --- | --- |
| Cn1oc(=S)nc1/C(=N\OCc1csc(NC(=O)OC(C)(C)C)n1)c1ccccc1 [Example 30] | 3.53 |
| CNC(=N\O)/C(=N\OCc1cccc(NC(=O)OC(C)(C)C)n1)c1ccccc1 [VIII-1] | 2.6 |
| C#CCCOC(=O)Nc1cccc(CO/N=C(/c2ccccc2)c2noc(=S)n2C)n1 [Example 2] | 3.87 |
| Cn1c(/C(=N\OCc2cccc(N)n2)c2ccccc2)noc1=S [Example 7] | 1.59 |
| Cn1c(/C(=N\OCc2cccc(NC(=O)OC(C)(C)C)n2)c2ccccc2)noc1=S [Example 1] | 4.66 |

Proceed to the following item.
Query: Bench note: what chromatographic logP did Cn1oc(=S)nc1/C(=N\OCc1csc(N)n1)c1ccccc1 [Example 20] show?
Result: 1.53

====

# Protocol: logP by HPLC on reversed phase columns (EEC directive 79/831 Annex V.A8)
# Conditions: method [a]: HPLC/LC-MS at pH 2.7, 0.1% formic acid in water / acetonitrile gradient; Table 1
Measured metric: LogP

| Compound | LogP |
| --- | --- |
| CCCCCCCC(=O)Nc1nc(CON=C(c2ccccc2)c2nc(=S)on2C)cs1 [Example 13] | 4.39^[a] |
| CC(COc1ccccc1)OC(=O)Nc1nc(CON=C(c2ccccc2)c2nc(=S)on2C)cs1 (stereo not drawn) [Example 31] | 4.44^[a] |

Query: Bench note: what LogP did CCCCCOC(=O)Nc1cccc(CON=C(c2ccccc2)c2noc(=S)n2C)n1 [Example 5] show?
Result: 5.05^[a]

====

# Protocol: logP by HPLC on reversed phase columns (EEC directive 79/831 Annex V.A8)
# Conditions: method [a]: HPLC/LC-MS at pH 2.7, 0.1% formic acid in water / acetonitrile gradient; Table 1
Measured metric: LogP

| Compound | Measured metric | Recorded value |
| --- | --- | --- |
| CN1C(C(=NOCc2cccc(NC(=O)OC(C)(C)C)n2)c2ccccc2)=NOS1=O (stereo not shown) [Example 28] | LogP | 4.18^[a] |
| C#CCCCCOC(=O)Nc1nc(CON=C(c2ccccc2)c2nc(=S)on2C)cs1 [Example 17] | LogP | 3.44^[a] |
| C#CCCOC(=O)Nc1cccc(CON=C(c2ccccc2)c2nc(=NC#N)on2C)n1 [Example 19] | LogP | 3.13^[a] |

Proceed to the following item.
Query: Bench note: what LogP did C#CCCOC(=O)Nc1cccc(CON=C(c2ccccc2)c2nc(=S)on2C)n1 [Example 26] show?
Result: 3.15^[a]
